These data points were gathered from ChEMBL document CHEMBL1145847.

assay-details: Percentage oral bioavailability determined in dog
Type: ADME, organism-based, Canis lupus familiaris
run-parameters: in vivo, read-out: Bioavailabiility
assay-readout: bioavailability

Value lookup for bioavailability; key = `C[C@H](NC(=O)/C=C/c1ccccc1)c1cccc(N2CCOCC2)c1`
100%

###

tgt: Voltage-gated potassium channel, KQT; KCNQ2(Kv7.2)/KCNQ3(Kv7.3) (Homo sapiens, UniProt O43525+O43526)
Sequence (O43526 whole entry): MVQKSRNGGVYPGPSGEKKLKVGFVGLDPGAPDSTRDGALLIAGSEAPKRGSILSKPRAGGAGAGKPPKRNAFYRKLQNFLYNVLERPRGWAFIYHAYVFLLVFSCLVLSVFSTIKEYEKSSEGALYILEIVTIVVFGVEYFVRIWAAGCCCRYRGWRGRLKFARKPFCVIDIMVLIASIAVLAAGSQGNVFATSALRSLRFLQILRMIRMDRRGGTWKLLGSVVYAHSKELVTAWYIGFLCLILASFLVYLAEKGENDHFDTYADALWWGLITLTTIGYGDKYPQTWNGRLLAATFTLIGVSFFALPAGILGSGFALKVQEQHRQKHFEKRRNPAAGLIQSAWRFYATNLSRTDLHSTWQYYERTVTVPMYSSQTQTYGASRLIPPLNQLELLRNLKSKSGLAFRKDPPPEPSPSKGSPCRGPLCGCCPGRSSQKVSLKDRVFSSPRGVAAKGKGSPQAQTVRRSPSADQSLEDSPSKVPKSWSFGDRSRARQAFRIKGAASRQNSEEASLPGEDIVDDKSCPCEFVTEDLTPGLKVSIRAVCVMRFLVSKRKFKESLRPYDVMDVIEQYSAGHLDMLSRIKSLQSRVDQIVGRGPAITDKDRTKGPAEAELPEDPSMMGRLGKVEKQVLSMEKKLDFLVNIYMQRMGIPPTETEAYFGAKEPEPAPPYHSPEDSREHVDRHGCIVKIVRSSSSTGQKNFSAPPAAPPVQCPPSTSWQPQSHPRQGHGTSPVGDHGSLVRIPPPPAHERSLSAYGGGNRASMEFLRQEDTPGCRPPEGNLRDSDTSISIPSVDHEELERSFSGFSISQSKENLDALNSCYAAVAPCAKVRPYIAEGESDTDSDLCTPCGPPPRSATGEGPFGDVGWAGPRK
Sequence (O43525 whole entry): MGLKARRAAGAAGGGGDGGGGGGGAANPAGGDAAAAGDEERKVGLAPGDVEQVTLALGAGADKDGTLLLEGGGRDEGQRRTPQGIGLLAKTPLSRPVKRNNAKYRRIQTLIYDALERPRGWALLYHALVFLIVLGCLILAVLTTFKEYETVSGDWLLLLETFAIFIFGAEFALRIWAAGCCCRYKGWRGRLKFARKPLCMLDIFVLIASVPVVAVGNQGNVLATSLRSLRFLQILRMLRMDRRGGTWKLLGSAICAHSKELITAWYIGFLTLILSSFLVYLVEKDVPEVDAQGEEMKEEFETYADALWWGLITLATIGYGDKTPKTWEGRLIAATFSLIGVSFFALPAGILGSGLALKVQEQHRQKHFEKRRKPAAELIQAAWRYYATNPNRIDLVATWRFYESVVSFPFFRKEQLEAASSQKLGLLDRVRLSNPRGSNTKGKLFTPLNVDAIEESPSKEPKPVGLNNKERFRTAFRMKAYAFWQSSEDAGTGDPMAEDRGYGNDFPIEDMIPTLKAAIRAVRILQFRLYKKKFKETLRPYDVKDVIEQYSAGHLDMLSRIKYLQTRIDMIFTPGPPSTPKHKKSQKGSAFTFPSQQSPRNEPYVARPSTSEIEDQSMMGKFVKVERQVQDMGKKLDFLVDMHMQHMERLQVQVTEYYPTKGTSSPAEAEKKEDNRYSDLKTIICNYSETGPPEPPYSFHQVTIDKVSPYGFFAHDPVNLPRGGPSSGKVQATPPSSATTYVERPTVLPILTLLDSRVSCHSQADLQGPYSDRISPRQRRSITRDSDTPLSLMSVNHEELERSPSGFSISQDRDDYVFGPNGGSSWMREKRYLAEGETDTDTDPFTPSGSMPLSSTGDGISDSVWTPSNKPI
assay-details: Effect on resting membrane potential in SH-SY5Y human neuroblastoma cells expressing native KCNQ channels
assay-readout: pEC50
Numbers only, as −log10 of the molar value.

Value lookup for pEC50; key = `C[C@H](NC(=O)/C=C/c1ccccc1)c1cccc(N2CCOCC2)c1`
6.16

###

assay-details: Half-life determined at 1 mg/kg, iv, in dog
Type: ADME, organism-based, Canis lupus familiaris
Set-up: dose 1 mg/kg
run-parameters: in vivo
assay-readout: half-life

Value lookup for half-life; key = `C[C@H](NC(=O)/C=C/c1ccccc1)c1cccc(N2CCOCC2)c1`
3 h

###

assay-details: Ratio of concentration of compound in brain to the concentration in plasma
run-parameters: brain and plasma, B/P ratio
assay-readout: Kp
Numbers only.

Value lookup for Kp; key = `C[C@H](NC(=O)/C=C/c1ccccc1)c1cccc(N2CCOCC2)c1`
0.78

###

assay-details: tmax determined dog at 3 mg/kg, po
Format: ADME, organism-based, Canis lupus familiaris
Design: dose 3 mg/kg, route oral
run-parameters: in vivo
assay-readout: Tmax (min)
Answers are plain numbers, in min.

Value lookup for Tmax; key = `C[C@H](NC(=O)/C=C/c1ccccc1)c1cccc(N2CCOCC2)c1`
30

###

assay-details: Clearance rate determined at 5 mg/kg, iv, in rat
Format: ADME, organism-based
Design: dose 5 mg/kg
run-parameters: in vivo
assay-readout: clearance
# output: number + unit

Value lookup for clearance; key = `C[C@H](NC(=O)/C=C/c1ccccc1)c1cccc(N2CCOCC2)c1`
41 mL/min/kg

###

assay-details: Half-life determined at 5 mg/kg, iv, in rat
Format: ADME, organism-based
Design: dose 5 mg/kg
run-parameters: in vivo
assay-readout: half-life (h)
Numbers only, in h.

Value lookup for half-life; key = `C[C@H](NC(=O)/C=C/c1ccccc1)c1cccc(N2CCOCC2)c1`
2.1

###

assay-details: Clearance rate determined at 1 mg/kg, iv, in dog
Format: ADME, organism-based, Canis lupus familiaris
Design: dose 1 mg/kg
run-parameters: in vivo
assay-readout: clearance (mL/min/kg)
One number for each entry, in mL/min/kg.

Value lookup for clearance; key = `C[C@H](NC(=O)/C=C/c1ccccc1)c1cccc(N2CCOCC2)c1`
12.7

###

assay-details: Percentage oral bioavailability determined in rat
Format: ADME, organism-based
run-parameters: in vivo, read-out: Bioavailabiility
assay-readout: bioavailability (%)
Answers are plain numbers, in %.

Value lookup for bioavailability; key = `C[C@H](NC(=O)/C=C/c1ccccc1)c1cccc(N2CCOCC2)c1`
93

###

assay-details: Volume of distribution was determined in dog at 1 mg/kg, iv
Type: ADME, organism-based, Canis lupus familiaris
Parameters: dose 1 mg/kg, route intravenous
run-parameters: in vivo, read-out: Vdss
assay-readout: Vd (L/kg)
Give bare numbers, in L/kg.

Value lookup for Vd; key = `C[C@H](NC(=O)/C=C/c1ccccc1)c1cccc(N2CCOCC2)c1`
3
